Target: MMP-13CD (catalytic domain of collagenase 3) (Homo sapiens, UniProt P45452)
Assay: Thiopeptolide substrate hydrolysis assay, MMP-13CD
Type: biochemical
Settings: IC50 (μM) Versus Certain MMPs: MMP-13 CD, thiopeptolide substrate, HEPES pH 7.0, 22° C.
Mark each entry met if its IC50 sits below 2 µM, and not met for all others.

COc1cc(CNC(=O)c2cn3c(=O)n(Cc4ccccc4)c(=O)c(C)c3s2)ccn1 [Example 37] : met

Now consider the entry below.
Ask: Does Cc1cccc(CNC(=O)c2cn3c(=O)n(Cc4ccccc4)c(=O)c(C)c3s2)n1 [Example 41] have IC50 strictly under 2 µM?
Result: not met

====

Each record here notes measured IC50.
Molecular target: MMP-14CD (catalytic domain of MMP-14) (Homo sapiens, UniProt P50281)
Assay: Thiopeptolide substrate hydrolysis assay, MMP-14CD
Assay type: biochemical
Conditions: HEPES pH 7.0, 22° C., read-out: IC50 (μM) Versus Certain MMPs: MMP-14 CD
Structures can show the parent of a compound that is named as a salt.

Consider the following illustrative entries.
Cc1c(=O)n(Cc2ccc(C#N)cc2)c(=O)n2cc(C(=O)NCc3ccc(F)cc3)sc12 : > 30 µM
Cc1c(=O)n(Cc2ccccc2)c(=O)n2cc(C(=O)NCc3cccnc3)sc12 : > 100 µM
Cc1ccc(CNC(=O)c2cn3c(=O)n(Cc4ccccc4)c(=O)c(C)c3s2)cc1 : > 100 µM
Cc1c(=O)n(Cc2ccccc2)c(=O)n2cc(C(=O)NCc3ccc(Cl)c(Cl)c3)sc12 : > 30 µM

Proceed to the following item.
Ask: If you can, please state the reported IC50 value of Cc1c(=O)n(Cc2ccc(Br)cc2)c(=O)n2cc(C(=O)NCc3ccncc3)sc12 [Example 71, hydrochloride] .
Result: > 30 µM

====

Molecular target: MMP-13CD (catalytic domain of collagenase 3) (Homo sapiens, UniProt P45452)
Test: Thiopeptolide substrate hydrolysis assay, MMP-13CD
Format: biochemical
Conditions: thiopeptolide substrate, HEPES pH 7.0, 22° C.; read-out: IC50 (μM) Versus Certain MMPs: MMP-13 CD
Structures can show the parent of a compound that is named as a salt.
Overview of recorded IC50 for various molecules

Cc1nc(CNC(=O)c2cn3c(=O)n(Cc4ccccc4)c(=O)c(C)c3s2)cs1 [Example 52, hydrochloride] : > 100 µM
O=C(c1ccccc1)n1c(=O)cc2sccn2c1=O : > 100 µM
Cc1c(=O)n(Cc2ccccc2)c(=O)n2cc(C(=O)NCC3CCCO3)sc12 (centres unmarked) [Example 110] : 54 µM
Cc1c(=O)n(Cc2ccccc2)c(=O)n2cc(C(O)C#Cc3ccccc3)sc12 (centres unmarked) [Example 31] : > 30 µM
Cc1c(=O)n(Cc2ccc(C(=O)O)cc2)c(=O)n2cc(C(=O)NCc3ccc(F)cc3)sc12 [Example 58] : 0.00222 µM

Ask: What measured IC50 is associated with Cc1c(=O)n(Cc2ccccc2)c(=O)n2cc(C(=S)NCc3ccccc3)sc12 [Example 24] on MMP-13CD (catalytic domain of collagenase 3) (Homo sapiens, UniProt P45452)?
Result: > 30 µM

Ask: Find IC50 (MMP-13CD (catalytic domain of collagenase 3) (Homo sapiens, UniProt P45452)) for the entry Cc1c(=O)[nH]c(=O)n2ccsc12 [Example 53]
Result: > 100 µM

Ask: Provide the documented IC50 with MMP-13CD (catalytic domain of collagenase 3) (Homo sapiens, UniProt P45452) as the system for Cc1c(=O)n(Cc2ccccc2)c(=O)n2cc(C(=O)NCC3CCNCC3)sc12 [Example 45, hydrochloride]
Result: > 100 µM

Ask: Requested read-out IC50, target or system MMP-13CD (catalytic domain of collagenase 3) (Homo sapiens, UniProt P45452), entry Cc1c(=O)n(Cc2ccccc2)c(=O)n2cc(C(O)C=Cc3ccccc3)sc12 (centres unmarked) [Example 29]
Result: 25 µM

Ask: What reported IC50 corresponds to Cc1c(=O)n(CCCCCC#N)c(=O)n2cc(C(=O)NCc3ccc(F)cc3)sc12 [Example 89] on MMP-13CD (catalytic domain of collagenase 3) (Homo sapiens, UniProt P45452)?
Result: 1.08 µM

Ask: Value wanted: IC50 (MMP-13CD (catalytic domain of collagenase 3) (Homo sapiens, UniProt P45452)) of entry COC(=O)c1sc2cc(=O)n(Cc3ccccc3)c(=O)n2c1C [Example 26]
Result: > 100 µM

Ask: Item Cc1c(=O)n(Cc2ccc(C#N)cc2)c(=O)n2cc(C(=O)NCc3ccncc3)sc12 [Example 85, hydrochloride] with MMP-13CD (catalytic domain of collagenase 3) (Homo sapiens, UniProt P45452) - IC50?
Result: 0.0547 µM

Ask: So what IC50 did O=c1cc2sc(C(O)CCc3ccccc3)cn2c(=O)n1Cc1ccccc1 (centres unmarked) [Example 5] get with MMP-13CD (catalytic domain of collagenase 3) (Homo sapiens, UniProt P45452)?
Result: 14.3 µM

Ask: Test system MMP-13CD (catalytic domain of collagenase 3) (Homo sapiens, UniProt P45452); read-out IC50; what value for Cc1c(=O)n(Cc2ccccc2)c(=O)n2cc(C(=O)O)sc12 [Example 33] ?
Result: > 100 µM

====

Measured IC50 by item
Biological target: MMP-7FL (full length matrilysin) (Homo sapiens)
Sequence (P09237 95-267): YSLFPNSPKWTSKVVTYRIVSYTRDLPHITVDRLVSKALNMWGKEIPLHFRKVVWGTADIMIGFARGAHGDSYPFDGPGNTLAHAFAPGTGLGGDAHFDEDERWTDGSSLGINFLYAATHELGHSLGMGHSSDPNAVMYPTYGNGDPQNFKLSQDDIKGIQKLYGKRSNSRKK
Assay: Thiopeptolide substrate hydrolysis assay, MMP-7FL
Type: biochemical
Settings: HEPES pH 7.0, 22° C., read-out: IC50 (μM) Versus Certain MMPs: MMP-07 FL
Where a name gives a salt, the structure may show the parent alone.

Ask: Look up IC50 for this molecule: Cc1c(=O)n(Cc2ccc(Br)cc2)c(=O)n2cc(C(=O)NCc3ccncc3)sc12 [Example 71, hydrochloride]
Result: > 30 µM

Ask: Report IC50 for O=c1cc2sc(C(O)CCc3ccccc3)cn2c(=O)n1Cc1ccccc1 (stereo not shown) please.
Result: > 100 µM

Ask: // query IC50 value for entry COc1cc(CNC(=O)c2cn3c(=O)n(Cc4ccccc4)c(=O)c(C)c3s2)ccn1 [Example 37]
Result: > 30 µM

Ask: Could you share which IC50 value was measured for O=C(NCc1ccc(Cl)c(Cl)c1)c1cn2c(=O)n(Cc3ccc(Cl)cc3)c(=O)cc2s1 ?
Result: 25 µM

====

Target: MMP-1FL (full length interstitial collagenase) (Homo sapiens, UniProt P03956)
Sequence (P03956 100-469, species assumed): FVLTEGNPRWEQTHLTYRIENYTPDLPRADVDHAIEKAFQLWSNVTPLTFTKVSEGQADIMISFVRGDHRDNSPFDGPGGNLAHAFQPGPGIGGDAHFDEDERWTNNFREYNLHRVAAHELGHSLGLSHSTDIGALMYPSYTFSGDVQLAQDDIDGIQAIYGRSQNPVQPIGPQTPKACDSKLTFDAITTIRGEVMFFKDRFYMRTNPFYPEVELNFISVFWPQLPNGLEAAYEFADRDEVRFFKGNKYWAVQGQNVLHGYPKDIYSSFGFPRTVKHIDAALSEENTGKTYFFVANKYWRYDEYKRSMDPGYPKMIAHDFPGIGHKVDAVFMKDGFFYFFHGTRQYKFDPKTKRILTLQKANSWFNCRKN
Assay: Thiopeptolide substrate hydrolysis assay, MMP-1FL
Format: biochemical
Details: HEPES pH 7.0, 22° C., read-out: IC50 (μM) Versus Certain MMPs: MMP-01 FL
Counter-ions that a name gives are not always drawn.
Listed molecules paired with reported IC50

O=C(Nc1ccc(-c2ccccc2)cc1)c1cn2c(=O)n(Cc3ccccc3)c(=O)cc2s1 : > 30 µM
O=C(OCc1ccccc1)c1cn2c(=O)n(Cc3ccccc3)c(=O)cc2s1 : > 100 µM
O=C(CCc1ccccc1)c1cn2c(=O)n(Cc3ccccc3)c(=O)cc2s1 : > 100 µM

Ask: I'm curious: which IC50 was measured for Cc1c(C(=O)OCc2ccccc2)sc2cc(=O)n(Cc3ccccc3)c(=O)n12 tested on MMP-1FL (full length interstitial collagenase) (Homo sapiens, UniProt P03956)?
Result: > 100 µM

Ask: Find IC50 (MMP-1FL (full length interstitial collagenase) (Homo sapiens, UniProt P03956)) for the entry Cc1c(=O)n(Cc2ccc(S(C)(=O)=O)cc2)c(=O)n2cc(C(=O)NCc3ccncc3)sc12 [Example 81, hydrochloride]
Result: > 100 µM

Ask: Enter reported IC50 observed with MMP-1FL (full length interstitial collagenase) (Homo sapiens, UniProt P03956) for Cc1c(=O)n(Cc2ccc(C(=O)O)cc2)c(=O)n2cc(C(=O)NCc3ccncc3)sc12
Result: > 100 µM

Ask: Record O=c1cc2sc(C(O)CCc3ccccc3)cn2c(=O)n1Cc1ccccc1 (centres unmarked) : what is its IC50 with MMP-1FL (full length interstitial collagenase) (Homo sapiens, UniProt P03956)?
Result: > 100 µM

Ask: Enter reported IC50 observed with MMP-1FL (full length interstitial collagenase) (Homo sapiens, UniProt P03956) for O=C(NCc1ccccc1)c1cn2c(=O)n(Cc3ccccc3)c(=O)cc2s1
Result: 81 µM

====

Target: MMP-14CD (catalytic domain of MMP-14) (Homo sapiens, UniProt P50281)
Assay: Thiopeptolide substrate hydrolysis assay, MMP-14CD
Type: biochemical
Details: HEPES pH 7.0, 22° C., read-out: IC50 (μM) Versus Certain MMPs: MMP-14 CD
Structures can show the parent of a compound that is named as a salt.
Overview of reported IC50 across a group of molecules:

The examples below pair each entry with its known result.
Cc1c(=O)n(Cc2ccccc2)c(=O)n2cc(C(=O)NCc3ccc(Cl)cc3)sc12 [Example 50] : > 100 µM
Cc1c(=O)n(Cc2ccccc2)c(=O)n2cc(C(=O)NCc3ccncc3)sc12 [Example 36, hydrochloride] : > 100 µM

Ask: Look up IC50: Cc1c(=O)n(Cc2ccccc2)c(=O)n2cc(C(=O)NCc3ccc4nsnc4c3)sc12 [Example 42]
Result: > 100 µM

Ask: Requested read-out: IC50. Entry: O=C(OCc1ccccc1)C1C[S+]([O-])c2cc(=O)n(Cc3ccccc3)c(=O)n21 (stereo not shown) [Example 23]
Result: > 100 µM

Ask: Any idea what IC50 was measured for Cc1c(=O)n(Cc2ccccc2)c(=O)n2cc(C(=O)NCc3ccc(F)cc3)sc12 [Example 30] ?
Result: > 30 µM

Ask: Report IC50 for Cc1c(=O)n(Cc2ccc(C(=O)N3CCOCC3)cc2)c(=O)n2cc(C(=O)NCc3ccncc3)sc12 [Example 73, hydrochloride] please.
Result: > 30 µM

Ask: # IC50 lookup, item O=C(NCc1ccccc1)c1cn2c(=O)n(Cc3ccccc3)c(=O)cc2s1 [Example 4]
Result: 47.5 µM

Ask: Can you look up the measured IC50 of Cc1c(=O)n(Cc2ccc(F)cc2)c(=O)n2cc(C(=O)NCc3ccncc3)sc12 [Example 70, hydrochloride] for me?
Result: > 30 µM
